These entries and their values trace back to the supplement of paper PMC9170038.

apparent KD of K4 kissing-loop reporter for assorted sequences
System: K4 kissing-loop RNA reporter
TEST_SUMMARY: apparent KD of K4 kissing-loop reporter; higher = weaker reporter binding
EXPERIMENTAL_SETUP: Eterna round: R107; input ligand: arginine 13.2 mM
In your response, put the unit directly after the numeric value.

Worked cases, apparent KD of K4 kissing-loop reporter given:
GAUUCUGUUCGAAAGAACGGAAUCACGGAAGGAGCGAGAGAAAUCUCAGGUAGGUCGCCGAAUUUUAGAUAGUGAUGUUAUCAUU [Arginine A K4 1]: 724 nM
AGUAGUUGGACGGCCGCCACUAGAACGGCUUUGCCAAAGGCAGAGCACUAGAGUGAUGUUCUAGCUAGGACCGGGUCCAACUACA [Omei KL Tryp B SS A v3]: 204 nM
UGUGAACAAAAGUAGAGUGGACCACUAUAGCGAGGACCGGUACGGCCGCCACUCGUAUAUAAAUUCAGUGAUGUUGAAAAGAGCU [Exclusion Tryptophan A GF1]: 283 nM
GGAGUUACCUGGGAUACCAGUCGGAGUCUCAGAGCUCGGAGUGAUGUUCUGGGAUGUUUCGGCCCUUGGCAGCUCUGGGACUCCU [#2 Exclusion - Theophylline B Attempt #17 (HarryS)]: 569 nM
GGCUUGCCAGUGAUGUUGGCAUAAACUGAAGGAGCGCGUGAAAACGCAGGUAGGUCGCAGAACCUUGCCAACUAUUUUAUUUGCC [Ex Arginine A K4 24]: 223 nM
UGAUACCAGACUGAUACCAGCGAGUGAUGUUUGCUGAAAUCAGGGUCAAAGACCCUGUCUCGCCCUUGGCAGCAGUCUGGUAUCU [TheoBX 21 #SwitchBubble #StaticStem]: 601 nM

Recorded result, AGAGCGGUCGAAGGAUAUGAGACAACCAACGGUGAGUGAUGUUUGCCGAGUAAACCUCUAGUUGCGUCAGAAGGUCGGCUCAGUC [theeternabot_sameState_KL_FMN_B_25] , apparent KD of K4 kissing-loop reporter: 460 nM

Record UGAUAAAGCAGUGAUGUUGCAAGUAAUGAUACCAGUUAAGAAGAGAACCCUUGGCAGCAUAAAGUGCGCUCUGAUGAGUGUGCUU [whbob_SS_Theo_A_w52] . Reported apparent KD of K4 kissing-loop reporter: 130 nM

Quick note, apparent KD of K4 kissing-loop reporter for AGAUUCGACACGGCCGCCACUUGUGGUGGAUUAUCCUAUGUAAGACAUGAGUGAUGUUCAUGUACAAGGACCGGGUGUUGAGUCU [KL-XTryp-B4 #analogue] landed at 177 nM

Record GAUAUAGUGAUGUUAUAUACUGAUAGACAACGAGGACCGGUACGGCCGCCACUCGAGAGGGUGAAAAUAAUGAUAAAAUAAUAAU [ExyTryA#1] . Reported apparent KD of K4 kissing-loop reporter: 310 nM

# apparent KD of K4 kissing-loop reporter (sequence: UGAUACCAGGCGGCCGCCACUCCUACAGGUCAAAGACCUGUAGAACUGGUUUUUUAGUGAUGUUGGAGGACCGGGCCUGGUAUCU [FiskerMod 30 - Jieux - Exclusion - Tryptophan B] ) is 217 nM

The recorded apparent KD of K4 kissing-loop reporter for GUAGCACUUGACAGUGAUGUUGUCAAGGACAAGGAUAUCAUCUCAAUGAGAAGGUGUCCUUGAUAACAGCUACGGGAAUAUCCCA [Omei KL FMN A Exc D v3] is 108 nM

Query UGUCAUGGAAACAUGAACGUUGAUGUUCGACGAGGACCGGUACGGCCGCCACUCGAGUAAUAGUCAGUGAUGUUGACUGGGCUAA [KL-SSTryp-A form1 sub2] yields apparent KD of K4 kissing-loop reporter of 216 nM

So for UGGAGUUGACGAAAAGUCAACUCCUGAGAUACCAGUGACGAAAGUCACCCUUGGCAGCUCACUGGCAGUGAUGUUGCAAAAUAAA [KL-SSTheo-A4] , the logged apparent KD of K4 kissing-loop reporter turned out to be 52.2 nM

Looking up UCUCGGGCCAGUGAUGUUGGCGGCUAGUGGCGAGGACCGGUACGGCCGCCACUCGGCGCAGCAGCGGAGUGAUGUUUCGUGAGUA [Same State Tryptophan A GF 17] , I see its apparent KD of K4 kissing-loop reporter listed as 301 nM

Recorded result, AGCAGUGAUGUUGCAUUUAUAAUGACCGAUACCAGUAUCGAUAGAUACCCUUGGCAGCGGAUUUCCGCAACGACUAGGAAACUAG [Ex Theophylline A K4 14] , apparent KD of K4 kissing-loop reporter: 359 nM

For this sequence ( UGUAAGCGCGUAGAUACCAGCAGACGAGUGAUGUUCAAGAGAUUAAGGAAAAGAAAGUAAUGCCCUUGGCAGCUAAUCAUAAGCG [whbob_Ex_Theo_B_sa93] ), measured apparent KD of K4 kissing-loop reporter is 312 nM

###

Test system: K4 kissing-loop RNA reporter;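 further: bound reporter read as fluorescence of individual clusters on recovered sequencing chips by microscopy, with normalized cluster intensities fitted with a binding model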
TEST_SUMMARY: apparent KD of K4 kissing-loop reporter; higher = weaker reporter binding
EXPERIMENTAL_SETUP: Eterna round: R107; input ligand: theophylline 20 uM
Assign condition met to entries whose apparent KD of K4 kissing-loop reporter meets or exceeds 300 nM; assign condition not met to the rest.

Before answering, review these 10 worked examples.
GAAUAAUAACAUGAGUGAUGUUCAUGUAAACGAGGACCGGUACGGCCGCCACUCGAACCUCAUGUAAGCCGUACCAAUAACAAUA [KL-XTryp-A4 #analogue]: condition not met
CAUAGACAAGUGAUGUUUGUCAUAACCGAAGGAGCGUCGUUGAAGACAGGUAGGUCGCGGAUUAAUUUAGAUUAUAUUCUUUUUA [JR_SSArginiA_Sub020]: condition met
GCCGUACGCAUGGAUACCAGUCUUAGAGUGAUGUUCUAAUCGAUUGCGCCUGGAUCAAUGGACCCUUGGCAGCCAUGCGUACGGC: condition not met
UUUUAAAUGUCUGAUACCAGAGAAAAUUUAUGUAGUGAUGUUAUAUACAAAAUAAAUAAGCUCCCUUGGCAGCAGUAUUAAUUUU [AstrosExc-TheB#7]: condition met
UGUGGAGAAUAUGAUACCAGCAGUGAGAGAGAGGAAGUAUAGUGAUGUUAUAUGAGAGAAUGCCCUUGGCAGCAUAUGUAGUAGG [SSTheophylB.G]: condition not met
GGCUUGCCAGUGAUGUUGGCAUAAACUGAAGGAGCGCGUGAAAACGCAGGUAGGUCGCAGAACCUUGCCAACUAUUUUAUUUGCC [Ex Arginine A K4 24]: condition not met
GGGUUGAACUGAAGGAGCGAGAAAUAGAAAGUAAGAAGAUAAGCUAGUGAUGUUAGAAAUUCUCAGGUAGGUCGCAGUAAGAAUU [V3]: condition not met
UAAGAGGACCACUGCGAGAGUCCUCGAAUACGAGGACCGGUACGGCCGCCACUCGAUAAUUUGCAGUGAUGUUGCAAGUAAGAAU [BrourdMod 6 - Jieux - Same State Tryptophan A]: condition not met
UUGAGCCGGACCGAAGUCCGGCUCUGCGAGCGAGGACCGGUACGGCCGCCACUCGGUGCAGUGAUGUUGCAUGGCCGCAAGGCCG [#2 Exclusion - Tryptophan A Attempt #8 (HarryS)]: condition met
GGUAGUGCUAGCGAUACCAGUCAUAUCGCUCUGGAGUGAUGUUCCGGAACGUGCGGAGAAGACCCUUGGCAGCGCUUGACGGUGU [Exclusion Theophylline B GF5]: condition not met

Does apparent KD of K4 kissing-loop reporter meet or surpass 300 nM for CCGCUACCCUCAGGAUAUUAAAUAUUAGUGAUGUUAAUAAACCGAUGGCGAAAGCCAUCGGUAUGUUGAGAAGGGAGGGUAGCGG [whbob_SS_FMNB__2th196] ?
condition met

Please indicate if the recorded apparent KD of K4 kissing-loop reporter for UGUCAUGGAAACAUGAACGUUGAUGUUCGACGAGGACCGGUACGGCCGCCACUCGAGUAAUAGUCAGUGAUGUUGACUGGGCUAA [KL-SSTryp-A form1 sub2] meets or exceeds 300 nM.
condition not met

# check: apparent KD of K4 kissing-loop reporter of UACAUUGCAGUCUUCUUCGUCCUAGAUGACUAGGAUAUCAGGAAACUGAGAAGGAGUCACUGCAGUGAUGUUGCAGCUAGGACGA [KL-SSFMN-A9] is greater than or equal to 300 nM
condition not met

In plain terms: is recorded apparent KD of K4 kissing-loop reporter at least 300 nM for UUAGUUGAAAGUGAUACCAGACGAGUGAAGGGAAGAAAUUAAGUUGGAGUGAUGUUCCGCGUCCCUUGGCAGCACUUUGUAAUUU [Exclusion Theophylline B GF 22] ?
condition not met

Could you tell me if the measured apparent KD of K4 kissing-loop reporter of GACGGGUUCCUGCUCAAUCCGUCGCAUGAUCGAGGACCGGUACGGCCGCCACUCGAGGCCAUGCCGUACGAGUGAUGUUCGUGCG [Xeon] reaches 300 nM or more?
condition met

Would you say AACCGAGGUAAUCCACAAAGAUAACAUGAUACCAGAUAUAUAAAUAUCCCUUGGCAGCAUGGCAUGAGUGAUGUUCAUGUGUCUU [KL-SSTheo-A10] shows apparent KD of K4 kissing-loop reporter at minimum 300 nM?
condition not met

I'd appreciate it if you could say whether UCUUGAGUAUAUGAUACCAGCAGUGAGAGACAGGAAGUAUAGUGAUGUUAUAUGAGAGAAUGCCCUUGGCAGCGUGUGCGGUGGG [SSTheophylB.S] has apparent KD of K4 kissing-loop reporter at least equal to 300 nM.
condition not met
